Overview of reported TGI across a group of compounds:
Test system: MDA-MB-231 breast
protocol.description: NCI tumour cell line growth inhibition, 48 h
I only need the number, in µM, no unit after it.

Record excerpt, results attached:
1. Cc1ccc([N+](=O)[O-])cc1S(=O)(=O)Nc1ccc(C2=NN(C(=O)c3ccccc3)C(c3ccccc3O)C2)cc1 (centres undefined)
37.7
2. O=C1/C(=C/c2ccc([N+](=O)[O-])cc2)Sc2scc(-c3cccc([N+](=O)[O-])c3)[n+]21
16.5

Task: Would you kindly share the measured TGI for CN(CCc1ccccn1)c1ccc2c(c1)Cc1ccccc1-2 ?
Output: 21.9

Task: Entry under review: CC(NC(=O)c1ccc(OP(=O)(OCc2ccc([N+](=O)[O-])o2)N(C)CCCCCl)cc1)c1ccc(OCC2CCCCC2)c(C(N)=O)c1 (centres undefined) . Reported TGI?
Output: 9.66

Task: Form field: reported TGI of O=C1c2ccccc2C(=O)c2c1sc1nc3ccccc3n21
Output: 9.12

---

System: U251 CNS
protocol.description: NCI tumour cell line growth inhibition, 48 h
Examples of compounds with documented TGI follow.

1. O=C(c1ccccc1)N1CCC(Nc2cccnc2)O1 (stereo not given)
> 100 µM

Next compound, TGI to be filled in.
Task: Item COc1ccc(-c2cncn2-c2ccc(-c3nc4cc(OC)c(OC)c(OC)c4s3)cc2)cc1N with U251 CNS - TGI?
Output: > 100 µM

---

Tested on: MALME-3M melanoma
protocol.description: NCI tumour cell line growth inhibition, 48 h
Parameter: TGI. Scope: all listed entries.

Take a look at these entries with their results.
1. CCOc1ccc2c(c1)[n+]([O-])c(-c1ccc([N+](=O)[O-])cc1)c(N)[n+]2[O-]
> 100 µM
2. CCOC(=O)n1ccc2c(C(=O)OC)c(C(=O)OC)cc(/C(=C/C(=O)OC)C(=O)OC)c21
> 100 µM
3. COc1ccccc1N1CCN(CC(O)Cn2c(=O)c3c(OC)nc(C)cc3c(=O)n2-c2ccccc2)CC1 (stereo not given)
> 100 µM
4. C[C@]12O[C@@]3(C)O[C@@]3(C)[C@]3(C)O[C@]3(C)[C@@]1(C)O2
> 100 µM

Task: What value of TGI has been recorded for this entry: C=CC(=O)N1CCC(CNc2ncnc(N)c2-c2ccc(Oc3ccccc3)cc2)CC1
Output: 67 µM

---

Tested on: SF-268 CNS
protocol.description: NCI tumour cell line growth inhibition, 48 h
measurement.type: TGI

These solved cases illustrate the format of a correct answer.
1. COc1cc([N+](=O)[O-])cc2c1NC(=O)C2(C)SC (stereo not drawn)
> 100 µM
2. C[C@@H]1C[C@@H]2C(=O)N(c3ccccc3)C(=O)[C@@H]2c2[nH]c3ccc(Br)cc3c21
> 100 µM
3. CN(CCN1C(=O)c2cccc3cccc(c23)C1=O)CCN1C(=O)c2cccc3cccc(c23)C1=O
> 100 µM
4. CN1CCC(n2cnc(-c3ccc(F)cc3)c2-c2ccnc(Nc3ccccc3)n2)CC1
> 25 µM
5. O=C(/C=C/c1ccco1)N1CCN(Cc2ccccc2)CC1
> 100 µM
6. COc1ccc(/C=C2/C(=O)N(/C=C3\C(=O)Oc4ccccc4C3=O)C(=NC(C)=O)N2C)cc1OC
> 100 µM
7. CNc1ccc(Cl)cc1C(=O)N1CCC[C@H]1CO
> 100 µM
8. CCOc1cc2cnc3c4cc(OC)c(OC)cc4ccc3c2cc1OC
> 100 µM
9. CCCCCC/C=C\CCCCCCCCCc1cccc(OC)c1O
> 100 µM
10. Nc1nc(Cl)cc(NCC2(CO)CC=CC2)n1
> 100 µM

Task: I have this molecule here, CCOC(=O)/C=C(\C(=O)OCC)n1cc(C)c(=O)n(Cc2cn(COCCOC(C)=O)nn2)c1=O , and I need its recorded TGI.
Output: 31.3 µM

Task: State the recorded TGI for this entry: COc1ccc2c3c([nH]c2c1)[C@H](C=C(C)C)N1C(=O)[C@@H]2CCCN2C(=O)[C@@H]1C3
Output: > 100 µM

Task: Can you share its TGI? I mean this molecule: COc1ccc(OC)c(-c2nc3sc(C)cn3c2/C=C2\C(=O)N(C)c3ccccc32)c1
Output: 63.6 µM

Task: Requested read-out: TGI. Entry: O=C(c1nc2ccc(Cl)cc2[nH]c1=O)C(O)c1cccc([N+](=O)[O-])c1 (stereo not drawn)
Output: 81.5 µM

Task: Find the recorded TGI belonging to CC(C)(C)c1cc(C#N)c2c(c1)C(=O)OC2(c1ccccc1)c1ccccc1C#N (stereo not drawn) and report it.
Output: > 100 µM

Task: Form field: reported TGI of CCCC(=O)Nc1cc(/C=C/C(=O)N2CC(CCl)c3c2cc(OC(C)=O)c2[nH]cc(C)c32)n(C)c1 (stereo not drawn)
Output: < 2.5e-05 µM

Task: # get_value(readout='TGI', item= CC(=O)O[C@H]1C(=O)[C@@]2(C)[C@H]([C@H](OC(=O)c3ccccc3)[C@]3(O)C[C@H](OC(=O)[C@H](O)[C@@H](NC(=O)C(C)(O)C(C)O)c4ccccc4)C(C)=C1C3(C)C)[C@]1(OC(C)=O)CO[C@@H]1C[C@@H]2O (stereo partly drawn) )
Output: > 50 µM

Task: Query: TGI; subject: CN(C)CCSC(=Nc1ccccc1)n1cccc1
Output: > 100 µM

Task: Name the reported TGI value associated with the molecule OCCCN=C1N=C(Cl)/C(=C\c2ccccc2)N1
Output: > 100 µM

Data provenance: PubChem BioAssay (NCI)
